# Target system: MEK2 (Homo sapiens, UniProt P36507, S222E/S226D)
# Construct: 6-histidine tag (N); E. coli for ERK1
# Sequence (P36507 with tags, fused parts or gaps S222E/S226D): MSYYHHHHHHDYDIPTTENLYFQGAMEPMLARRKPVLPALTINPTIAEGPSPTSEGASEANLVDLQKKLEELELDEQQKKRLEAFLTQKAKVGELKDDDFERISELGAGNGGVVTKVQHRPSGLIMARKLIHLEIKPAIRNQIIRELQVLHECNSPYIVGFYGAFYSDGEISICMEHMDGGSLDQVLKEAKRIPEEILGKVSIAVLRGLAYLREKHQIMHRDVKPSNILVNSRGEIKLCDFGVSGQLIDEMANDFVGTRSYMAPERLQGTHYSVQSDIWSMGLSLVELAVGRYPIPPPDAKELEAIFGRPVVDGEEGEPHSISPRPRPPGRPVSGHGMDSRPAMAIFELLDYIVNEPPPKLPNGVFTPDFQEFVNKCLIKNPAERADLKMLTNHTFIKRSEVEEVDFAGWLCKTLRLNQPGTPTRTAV
# Protocol notes: MEK2 inhibition assay, fluorescence polarization with IMAP beads (ERK1 / FI-Erktide substrate)
# Assay conditions: 4 nM MEK2, 25 nM ERK1, 400 μM ATP, 500 nM FI-Erktide, 1% DMSO, 22 min at room temperature; values given as ranges; read-out: IC50 of Exemplified Compounds Against MEK2
Property label: IC50

Known results for compounds:
QUERY: Given the entry Cn1c(Nc2ccc(I)cc2Cl)c(C(=O)NOC[C@@H](O)CO)c(=O)n(C)c1=O , report its measured IC50.
RESULT: ≤ 500 nM

QUERY: Cn1c(Nc2ccc(I)cc2Cl)c(C(=O)NOCCO)c(=O)n(C)c1=O ?
RESULT: ≤ 500 nM

Next:
QUERY: Could you share which IC50 value was measured for Cn1c(Nc2ccc(I)cc2Cl)c(C(=O)NOC[C@H](O)CO)c(=O)n(C)c1=O ?
RESULT: ≤ 500 nM

QUERY: Same read-out for CCn1c(Nc2ccc(I)cc2F)c(C(=O)NOCCO)c(=O)n(C)c1=O ?
RESULT: > 25000 nM

----------
Below: a set of entries, each annotated with reported IC50.
# Target system: MEK2 (Homo sapiens, UniProt P36507, S222E/S226D)
# Construct: 6-histidine tag (N); made in house; host or cells: Spodoptera frugiperda Sf9 (baculovirus) for MEK2; E. coli for ERK1
# Protocol notes: MEK2 inhibition assay, fluorescence polarization with IMAP beads (ERK1 / FI-Erktide substrate)
# Assay type: biochemical
# Assay conditions: 4 nM MEK2, 25 nM ERK1, 400 μM ATP, 500 nM FI-Erktide, 1% DMSO, 22 min at room temperature; values given as ranges; read-out: IC50 of Exemplified Compounds Against MEK2

These solved cases illustrate the format of a correct answer.
QUERY: Can you look up IC50 on MEK2 (Homo sapiens, UniProt P36507, S222E/S226D) for CCOC(=O)c1c(Nc2ccccc2F)n(C)c(=O)n(C)c1=O [Example 21] ?
RESULT: > 25000 nM

QUERY: // query: Cc1cc(I)ccc1Nc1c(C(=O)NOC[C@H](O)CO)c(=O)n(C)c(=O)n1C [Example 38]
RESULT: ≤ 500 nM

QUERY: Another: CC(=O)c1c(Nc2ccc(I)cc2F)n(C)c(=O)n(C)c1=O [Example 10]
RESULT: 501 to 2500 nM

New cases:
QUERY: Please tell me: IC50 of Cn1c(Nc2ccc(I)cc2F)c(C(=O)N2CCNCC2)c(=O)n(C)c1=O [Example 43] , system MEK2 (Homo sapiens, UniProt P36507, S222E/S226D)?
RESULT: > 25000 nM

QUERY: And for CCc1cc(Nc2c(C(=O)NOCCO)c(=O)n(C)c(=O)n2C)ccc1I [Example 41] ?
RESULT: > 25000 nM

QUERY: What do you get for Cc1cc(I)ccc1Nc1c(C(N)=O)c(=O)n(C)c(=O)n1C [Example 17] ?
RESULT: 501 to 2500 nM

QUERY: Next molecule up: Cn1c(Nc2ccc(I)cc2F)c(C(=O)C(=O)O)c(=O)n(C)c1=O [Example 31]
RESULT: > 25000 nM

QUERY: Also check Cn1c(Nc2ccc(I)c(F)c2F)c(C(=O)NOC[C@H](O)CO)c(=O)n(C)c1=O [Example 36]
RESULT: 501 to 2500 nM

QUERY: Please do the same for Cn1c(Nc2ccc(Br)cc2Cl)c(C(N)=O)c(=O)n(C)c1=O [Example 18] as well.
RESULT: 2500 to 25000 nM

----------
# Target system: MEK2 (Homo sapiens, UniProt P36507, S222E/S226D)
# Construct: 6-histidine tag (N); E. coli for ERK1
# Protocol notes: MEK2 inhibition assay, fluorescence polarization with IMAP beads (ERK1 / FI-Erktide substrate)
# Assay conditions: 4 nM MEK2, 25 nM ERK1, 400 μM ATP, 500 nM FI-Erktide, 1% DMSO, 22 min at room temperature; values given as ranges; read-out: IC50 of Exemplified Compounds Against MEK2
# Source text: For MEK2, DNA encoding residues 1-400 (S222E/S226D) of the full-length sequence of the human enzyme may be amplified by PCR and cloned into pFastbac (Invitrogen), which incorporates a 6-histidine tag at the N-terminus. The two mutations, S222E and S226D, may be obtained by quick change PCR. […] Recombinant protein may be isolated from cellular extracts by passage over ProBond resin (Invitrogen). […] The purity of MEK1 and MEK2 proteins may be determined on denaturing SDS-PAGE gel. […]
pIC50: −log10 of the molar value.
# Lookup of reported pIC50 keyed by entry

QUERY: Which measured pIC50 value corresponds to Cc1cc(I)ccc1Nc1c(C(=O)NOCCO)c(=O)n(C)c(=O)n1C ?
RESULT: ≥ 6.30

QUERY: What do you have for Cn1c(Nc2ccc(I)cc2F)c(C(=O)NOC[C@@H](O)CCO)c(=O)n(C)c1=O ?
RESULT: ≥ 6.30

More entries:
QUERY: // pIC50 lookup, key: Cn1c(=O)c(C(=O)NOC[C@H](O)CO)c(Nc2ccc(I)cc2F)n(CF)c1=O
RESULT: 5.60 to 6.30

QUERY: Would you kindly repeat that for COCC(=O)c1c(Nc2ccc(I)cc2F)n(C)c(=O)n(C)c1=O ?
RESULT: 4.60 to 5.60

QUERY: // same read-out, input: CCOC(=O)c1c(Nc2ccc(I)cc2F)n(C)c(=O)n(C)c1=O
RESULT: < 4.60

QUERY: Another molecule to check: Cn1c(Nc2ccc(I)cc2F)c(C(=O)NCCO)c(=O)n(C)c1=O
RESULT: 5.60 to 6.30

----------
# Target system: MEK2 (Homo sapiens, UniProt P36507, S222E/S226D)
# Construct: 6-histidine tag (N); E. coli for ERK1
# Protocol notes: MEK2 inhibition assay, fluorescence polarization with IMAP beads (ERK1 / FI-Erktide substrate)
# Assay conditions: 4 nM MEK2, 25 nM ERK1, 400 μM ATP, 500 nM FI-Erktide, 1% DMSO, 22 min at room temperature; values given as ranges; read-out: IC50 of Exemplified Compounds Against MEK2
// values below are reported IC50

Reference set (3 entries):
QUERY: I'd like to know its IC50. The compound in question is Cn1c(Nc2ccc(I)cc2F)c(C(=O)CO)c(=O)n(C)c1=O
RESULT: 0.501 to 2.5 µM

QUERY: Then this compound: Cn1c(Nc2cc(F)c(I)cc2F)c(C(=O)NOC[C@H](O)CO)c(=O)n(C)c1=O
RESULT: > 25 µM

QUERY: # repeat for Cn1c(Nc2ccc(I)cc2F)c(C(=O)NOC[C@@H](O)CO)c(=O)n(C)c1=O
RESULT: ≤ 0.5 µM

***
QUERY: What does the data say about its IC50? Entry: Cn1c(Nc2ccc(I)cc2F)c(C(=O)NOC(CO)CO)c(=O)n(C)c1=O
RESULT: ≤ 0.5 µM

----------
# Target system: MEK2 (Homo sapiens, UniProt P36507, S222E/S226D)
# Construct: 6-histidine tag (N); E. coli for ERK1
# Protocol notes: MEK2 inhibition assay, fluorescence polarization with IMAP beads (ERK1 / FI-Erktide substrate)
# Assay conditions: 4 nM MEK2, 25 nM ERK1, 400 μM ATP, 500 nM FI-Erktide, 1% DMSO, 22 min at room temperature; values given as ranges; read-out: IC50 of Exemplified Compounds Against MEK2
Property label: IC50

QUERY: I have this compound here, Cn1c(Nc2ccc(I)cc2F)c(C(=O)NOCC2CC2)c(=O)n(C)c1=O [Example 4] , and I need its recorded IC50.
RESULT: 501 to 2500 nM

---
QUERY: Given COCCOCC(=O)c1c(Nc2ccc(I)cc2F)n(C)c(=O)n(C)c1=O [Example 13] , state its recorded IC50.
RESULT: 2500 to 25000 nM

QUERY: Try this compound too: Cn1c(Nc2ccc(I)cc2F)c(C(=O)N2CC(O)CO2)c(=O)n(C)c1=O (centres unmarked) [Example 32]
RESULT: 2500 to 25000 nM

QUERY: Let us now turn to Cn1c(Nc2ccc(I)cc2F)c(C(=O)NN)c(=O)n(C)c1=O [Example 9]
RESULT: ≤ 500 nM

QUERY: Next record, please: Cn1c(Nc2ccc(I)cc2F)c(C(=O)c2ccco2)c(=O)n(C)c1=O [Example 11]
RESULT: 2500 to 25000 nM

QUERY: Follow-up entry: Cn1c(Nc2ccc(I)cc2F)c(C(=O)NCCN)c(=O)n(C)c1=O [Example 42]
RESULT: 501 to 2500 nM

QUERY: Note, next up: Cn1c(Nc2ccc(I)cc2F)c(C(=O)NOCCCO)c(=O)n(C)c1=O [Example 29]
RESULT: 501 to 2500 nM

QUERY: Input Cc1cc(C(=O)c2c(Nc3ccc(I)cc3F)n(C)c(=O)n(C)c2=O)no1 [Example 30]
RESULT: > 25000 nM

QUERY: Subsequent entry: CCOC(=O)c1c(Nc2ccc(Br)cc2Cl)n(C)c(=O)n(C)c1=O [Example 22]
RESULT: > 25000 nM

QUERY: What about Cn1c(Nc2ccc(I)cc2F)c(C(=O)NOCCO)c(=O)n(C)c1=O [Example 3] ?
RESULT: ≤ 500 nM

QUERY: Could you do the same for Cn1c(Nc2ccc(I)cc2F)c(C(=O)NOC[C@H](O)CO)c(=O)n(C)c1=O [Example 2] , please?
RESULT: ≤ 500 nM
